# Tested on: MRSA OU6
# procedureSummary: MicroScan Walkaway MIC panel, MRSA OU6
# Type: cell-based, Staphylococcus aureus
# measurementParameters: Staphylococcus aureus; MRSA OU6, MicroScan; read-out: MIC
Would you kindly list MIC for each of these compounds?

Completed entries (count: 5):
[
  {
    "molSmiles": "CCC[C@@H]1C[C@@H](C(=O)N[C@@H]([C@H]2O[C@H](SC)[C@H](O)[C@@H](O)[C@H]2O)[C@H](C)Cl)N(C)C1",
    "MIC": "> 4 µg/mL"
  },
  {
    "molSmiles": "CC[C@H]1OC(=O)[C@H](C)[C@@H](O[C@H]2C[C@@](C)(OC)[C@@H](O)[C@H](C)O2)[C@H](C)[C@@H](O[C@@H]2O[C@H](C)C[C@H](N(C)C)[C@H]2O)[C@](C)(O)C[C@@H](C)C(=O)[C@H](C)[C@@H](O)[C@]1(C)O",
    "MIC": "> 4 µg/mL"
  },
  {
    "molSmiles": "Cc1onc(-c2ccccc2)c1C(=O)N[C@@H]1C(=O)N2[C@@H]1SC(C)(C)[C@@H]2C(=O)O",
    "MIC": "> 2 µg/mL"
  },
  {
    "molSmiles": "CCCCCCCCCC(=O)N[C@@H](Cc1c[nH]c2ccccc12)C(=O)N[C@H](CC(N)=O)C(=O)N[C@@H](CC(=O)O)C(=O)N[C@@H]1C(=O)NCC(=O)N[C@@H](CCCN)C(=O)N[C@@H](CC(=O)O)C(=O)N[C@H](C)C(=O)N[C@@H](CC(=O)O)C(=O)NCC(=O)N[C@H](CO)C(=O)N[C@@H]([C@H](C)CC(=O)O)C(=O)N[C@@H](CC(=O)c2ccccc2N)C(=O)O[C@@H]1C",
    "MIC": "≤ 0.5 µg/mL"
  },
  {
    "molSmiles": "CN(C)[C@@H]1C(O)=C(C(N)=O)C(=O)[C@@]2(O)C(O)=C3C(=O)c4c(O)cccc4[C@@](C)(O)[C@H]3C[C@@H]12",
    "MIC": "≤ 4 µg/mL"
  }
]

Let us move to another entry and its MIC.
// query Indicate the recorded MIC value for this compound: CC(=O)NC[C@H]1CN(c2ccc(N3CCOCC3)c(F)c2)C(=O)O1
// result 2 µg/mL

* * *

# System: MRSA OU11
# procedureSummary: MicroScan Walkaway MIC panel, MRSA OU11
# Format: cell-based, Staphylococcus aureus
# measurementParameters: Staphylococcus aureus; MRSA OU11, MicroScan; read-out: MIC
parameter: MIC

Completed entries (count: 5):
[
  {
    "compound": "CN(C)[C@@H]1C(O)=C(C(N)=O)C(=O)[C@@]2(O)C(O)=C3C(=O)c4c(O)cccc4[C@@](C)(O)[C@H]3C[C@@H]12 [tetracycline]",
    "MIC": "≤ 4 µg/mL"
  },
  {
    "compound": "Cc1onc(-c2ccccc2)c1C(=O)N[C@@H]1C(=O)N2[C@@H]1SC(C)(C)[C@@H]2C(=O)O [oxacillin]",
    "MIC": "> 2 µg/mL"
  },
  {
    "compound": "CCCCCCCCCC(=O)N[C@@H](Cc1c[nH]c2ccccc12)C(=O)N[C@H](CC(N)=O)C(=O)N[C@@H](CC(=O)O)C(=O)N[C@@H]1C(=O)NCC(=O)N[C@@H](CCCN)C(=O)N[C@@H](CC(=O)O)C(=O)N[C@H](C)C(=O)N[C@@H](CC(=O)O)C(=O)NCC(=O)N[C@H](CO)C(=O)N[C@@H]([C@H](C)CC(=O)O)C(=O)N[C@@H](CC(=O)c2ccccc2N)C(=O)O[C@@H]1C [daptomycin]",
    "MIC": "≤ 0.5 µg/mL"
  },
  {
    "compound": "CC(=O)NC[C@H]1CN(c2ccc(N3CCOCC3)c(F)c2)C(=O)O1 [linezolid]",
    "MIC": "2 µg/mL"
  },
  {
    "compound": "CCC[C@@H]1C[C@@H](C(=O)N[C@@H]([C@H]2O[C@H](SC)[C@H](O)[C@@H](O)[C@H]2O)[C@H](C)Cl)N(C)C1 [clindamycin]",
    "MIC": "> 4 µg/mL"
  }
]

Let us move to another entry and its MIC.
// query Indicate the recorded MIC value for this compound: CC[C@H]1OC(=O)[C@H](C)[C@@H](O[C@H]2C[C@@](C)(OC)[C@@H](O)[C@H](C)O2)[C@H](C)[C@@H](O[C@@H]2O[C@H](C)C[C@H](N(C)C)[C@H]2O)[C@](C)(O)C[C@@H](C)C(=O)[C@H](C)[C@@H](O)[C@]1(C)O [erythromycin]
// result > 4 µg/mL
